# Tested on: SHP2-C SH2
# Experiment: SH2 binding enrichment of the phosphorylated peptide, bacterial display (enrichment ratio); higher = better substrate or ligand; peptides without Tyr show the background
Measure: SH2 binding enrichment

I. QNTGNYYDLYG [PTPN11_Y62_D61N]
II. FSCLPCGRLAY [SLC52A2_Y305_Y305C]
III. PINEPYGDDLD [JUP_Y693_M697L]
Kindly provide a descending ordering of the above sequences based on their SH2 binding enrichment. Provide the labels, sequenced as the question asks.
II, I, III

----------
# Tested on: SHP2-C SH2;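 also: peptide library displayed on the E. coli surface as eCPX fusions, selected cells deep-sequenced, score is each peptide's frequency after selection divided by its frequency in the input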
# Experiment: SH2 binding enrichment of the phosphorylated peptide, bacterial display (enrichment ratio); higher = better substrate or ligand; peptides without Tyr show the background
Measure: SH2 binding enrichment

HQPGEYIFHAE [FLT3_Y416]	0.743
YRQLPYCPSVE [CTNND2_Y508_Q507P]	0.585

1. KFADVYVGICL [B3GALNT1_Y269_E266A]
2. KIVATYRLCSE [DNAH3_Y1586]
3. CLLHCYFSQIR [MCM3AP_Y873]
Order the items by recorded SH2 binding enrichment; the first position goes to the largest value. Labels, requested order.
3, 2, 1
(3: 1.65, 2: 0.778, 1: 0.369)

A. LTQRTYMLENA [GPAA1_Y49_S51L]
B. SVVVPYEPTEV [TP53_Y220_P223T]
Kindly identify the item with the lower SH2 binding enrichment figure among these two: A and B To answer, give the label that identifies your chosen option.
B
(B: 0.619, A: 1.06)
